Hey, just so you know, these numbers are from patent US20250382344A1.

binders and their reported EC50, CreLuc reporter, 0.5% hP
- Measurement Target: human GLP-1 receptor (human, UniProt P43220 24-463)
- Assay Comment: cell-based or functional assay
*1 amine or outer side, *2 acyl side, *3 side chain or, on linkers, in order; H or OH if unused. Where no end group is shown, it is not given here. Side-chain parts run from the residue outwards. [ ]: non-standard residue; d: D form. The star is where a group is joined. C20 diacid = O=C(O)CCCCCCCCCCCCCCCCCCC(=O)*; γGlu = O=C(O)[C@H](CCC(=O)[*:2])N[*:1]; dtOrn = not defined here; Aib = CC(C)(N)C(=O)O

- Binder: "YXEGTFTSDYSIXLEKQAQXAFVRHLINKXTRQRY (Aib at 2, 13, 20, 30; NMeY at 35; Lys29 epsilon-amino: C18DA-gGlu-gGlu-gGlu-gGlu-gGlu-gGlu-eLys; C-terminal amide) [Compound 116]"
  Readout Units: "nM"
  EC50, CreLuc reporter, 0.5% hP: 2
- Binder: "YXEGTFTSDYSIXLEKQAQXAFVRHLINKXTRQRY (Aib at 2, 13, 20, 30; Lys29 epsilon-amino: C20DA-gGlu-gGlu-gGlu-gGlu-gGlu-AHX; C-terminal amide) [Compound 167]"
  Readout Units: "nM"
  EC50, CreLuc reporter, 0.5% hP: 1
- Binder: "YXEGTFTSDYSIXLEKQAQXEFVRHLINKXTRQRY (Aib at 2, 13, 20, 30; Lys29 epsilon-amino: C18DA-gGlu-gGlu-gGlu-gGlu-gGlu-gGlu-eLys; C-terminal amide) [Compound 145]"
  Readout Units: "nM"
  EC50, CreLuc reporter, 0.5% hP: 0.5
- Binder: "YXEGTFTSDYSIXLERQAQXAFVRHLINKXTRQRY (Aib at 2, 13, 20, 30; Lys29 epsilon-amino: C18DA-gGlu-gGlu-gGlu-gGlu-gGlu-gGlu-eLys; C-terminal amide) [Compound 124]"
  Readout Units: "nM"
  EC50, CreLuc reporter, 0.5% hP: 0.5
- Binder: "YXEGTFTSDYSIXLEKQAQXAFVRHLINKXTRQXY (Aib at 2, 13, 20, 30; dOR at 34; Lys29 epsilon-amino: C18DA-gGlu-gGlu-gGlu-gGlu-gGlu-gGlu-eLys; C-terminal amide) [Compound 90]"
  Readout Units: "nM"
  EC50, CreLuc reporter, 0.5% hP: 2
- Binder: "Y[Aib]EGTFTSDYSI[Aib]LEKQAQ[Aib]AFVRHLINK([dtOrn-γGlu-γGlu-γGlu-γGlu-γGlu-γGlu-C20 diacid])[Aib]TRQRY-NH2 (reading uncertain) [Compound 97]"
  Readout Units: "nM"
  EC50, CreLuc reporter, 0.5% hP: 3.8
